- target: Cytochrome P450 3A4 (Homo sapiens, UniProt P08684)
- Sequence (P08684 whole entry): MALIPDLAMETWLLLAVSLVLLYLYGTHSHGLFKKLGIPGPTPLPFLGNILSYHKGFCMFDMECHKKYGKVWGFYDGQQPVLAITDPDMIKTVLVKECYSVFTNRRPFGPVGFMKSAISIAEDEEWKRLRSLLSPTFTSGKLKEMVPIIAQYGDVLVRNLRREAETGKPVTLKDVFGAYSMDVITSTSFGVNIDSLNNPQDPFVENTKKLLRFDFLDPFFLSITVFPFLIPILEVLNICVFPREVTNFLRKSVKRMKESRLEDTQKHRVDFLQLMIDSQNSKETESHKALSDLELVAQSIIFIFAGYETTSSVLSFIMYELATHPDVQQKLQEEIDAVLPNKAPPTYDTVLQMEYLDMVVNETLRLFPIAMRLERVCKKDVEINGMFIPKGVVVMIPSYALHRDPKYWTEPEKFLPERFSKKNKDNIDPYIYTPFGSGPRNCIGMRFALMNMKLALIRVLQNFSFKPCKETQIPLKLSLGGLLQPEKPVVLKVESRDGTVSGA
- procedure_summary: Inhibition of CYP3A4 (unknown origin) using midazolam as substrate
pIC50: −log10 of the molar value.
quantity_kind: pIC50

Challenge: API: value(readout=pIC50, system=Cytochrome P450 3A4 (Homo sapiens, UniProt P08684)) for record Cc1ccc(NC(=O)c2ccnc(C(F)(F)F)c2)cc1-c1ccc2c(c1)OC1(CCOCC1)CC(=O)N2
Response given: < 4.52

* * *

Field: bioavailability. Provide a value for each of the compounds that follow.
- procedure_summary: Oral bioavailability in Sprague-Dawley rat by LC-MS/MS analysis
- Assay type: ADME, organism-based
- particulars: Sprague-Dawley, in vivo
The reply should be a number in %, with the unit left off.

Challenge: Give the measured bioavailability of Cc1ccc(NC(=O)c2ccnc(OC(F)F)c2)cc1-c1ccc2c(c1)OC1(CCOCC1)CC(=O)N2 .
Response given: 22

Challenge: Param item = Cc1ccc(NC(=O)c2cnnc(C(F)(F)F)c2)cc1-c1ccc2c(c1)OC1(CCOCC1)CC(=O)N2 ; retrieve measured bioavailability.
Response given: 9.2

Challenge: Given the entry Cc1ccc(NC(=O)c2cc(C(F)(F)F)cnn2)cc1-c1ccc2c(c1)OC1(CCOCC1)CC(=O)N2 , report its measured bioavailability.
Response given: 101

Challenge: Which bioavailability reading was recorded for the compound Cc1ccc(-c2nnc(-c3ccnc(C(F)(F)F)c3)[nH]2)cc1-c1ccc2c(c1)OC1(CCOCC1)CC(=O)N2 ?
Response given: 2.16

Challenge: So what's the measured bioavailability for this one? Cc1ccc(NC(=O)c2ccnc(C(F)(F)F)c2)cc1-c1ccc2c(c1)OC1(CCOCC1)CN(CCO)C2=O
Response given: 3.47

* * *

Task for the reader: assign each of the following molecules its reported AUC(0-t).
- procedure_summary: AUC (0 to t) in Sprague-Dawley rat plasma at 1 mg/kg, iv by LC-MS/MS analysis
- Assay type: ADME, organism-based
- Design: dose 1 mg/kg
Only the number, expressed in ng·h/mL, is required.

Challenge: Tell me the measured AUC(0-t) of Cc1cc(F)c(NC(=O)Nc2ccnc(C(F)(F)F)c2)cc1-c1ccc2c(c1)OC1(CCOCC1)CC(=O)N2 , please.
Response given: 154

Challenge: Request the reported AUC(0-t) associated with Cc1ccc(-c2nnc(-c3ccnc(C(F)(F)F)c3)[nH]2)cc1-c1ccc2c(c1)OC1(CCOCC1)CC(=O)N2
Response given: 999

* * *

- procedure_summary: Metabolic stability in human liver microsomes assessed as half life
- Type: ADME, Microsome
So I've got a bunch of molecules here, and I need their half-life values.
Response body: numeric value in min, unit text excluded.

Challenge: # query: half-life of entry COc1nnc(C(=O)Nc2ccc(C)c(-c3ccc4c(c3)OC3(CCOCC3)CC(=O)N4)c2)cc1C(F)(F)F
Response given: 57

Challenge: Given the entry Cc1ccc(NC(=O)c2cc(OC3CC3)cnn2)cc1-c1ccc2c(c1)OC1(CCOCC1)CC(=O)N2 , report its measured half-life.
Response given: 6.8

Challenge: Look at this molecule and give its reported half-life. Cc1ccc(NC(=O)c2cc(C(F)(F)F)cnn2)cc1-c1ccc2c(c1)OC1(CCOCC1)CC(=O)N2CCO
Response given: 11

Challenge: # query: half-life of entry Cc1ccc(NC(=O)c2ccnc(C(F)(F)F)c2)cc1-c1ccc2c(c1)OC1(CCOCC1)CC(=O)N2
Response given: 139

Challenge: Given Cc1ccc(NC(=O)c2cc(C(F)(F)F)cnn2)cc1-c1ccc2c(c1)OC1(CCOCC1)CC(=O)N2 , state its recorded half-life.
Response given: 106

Challenge: Item under review: Cc1ccc(NC(=O)c2cc(C(F)(F)F)cnn2)cc1-c1ccc2c(c1)OC1(CCOCC1)CC(=O)N2C . Reported half-life?
Response given: 4.6

* * *

quantity_kind: IC50 (µM)
Numbers only here, please. The scale is µM.

Challenge: Lookup: IC50 / UniProtKB Q12809 / Cc1ccc(NC(=O)c2ccnc(C(F)(F)F)c2)cc1-c1ccc2c(c1)OC1(CCOCC1)CC(=O)N2
Sequence (Q12809 whole entry): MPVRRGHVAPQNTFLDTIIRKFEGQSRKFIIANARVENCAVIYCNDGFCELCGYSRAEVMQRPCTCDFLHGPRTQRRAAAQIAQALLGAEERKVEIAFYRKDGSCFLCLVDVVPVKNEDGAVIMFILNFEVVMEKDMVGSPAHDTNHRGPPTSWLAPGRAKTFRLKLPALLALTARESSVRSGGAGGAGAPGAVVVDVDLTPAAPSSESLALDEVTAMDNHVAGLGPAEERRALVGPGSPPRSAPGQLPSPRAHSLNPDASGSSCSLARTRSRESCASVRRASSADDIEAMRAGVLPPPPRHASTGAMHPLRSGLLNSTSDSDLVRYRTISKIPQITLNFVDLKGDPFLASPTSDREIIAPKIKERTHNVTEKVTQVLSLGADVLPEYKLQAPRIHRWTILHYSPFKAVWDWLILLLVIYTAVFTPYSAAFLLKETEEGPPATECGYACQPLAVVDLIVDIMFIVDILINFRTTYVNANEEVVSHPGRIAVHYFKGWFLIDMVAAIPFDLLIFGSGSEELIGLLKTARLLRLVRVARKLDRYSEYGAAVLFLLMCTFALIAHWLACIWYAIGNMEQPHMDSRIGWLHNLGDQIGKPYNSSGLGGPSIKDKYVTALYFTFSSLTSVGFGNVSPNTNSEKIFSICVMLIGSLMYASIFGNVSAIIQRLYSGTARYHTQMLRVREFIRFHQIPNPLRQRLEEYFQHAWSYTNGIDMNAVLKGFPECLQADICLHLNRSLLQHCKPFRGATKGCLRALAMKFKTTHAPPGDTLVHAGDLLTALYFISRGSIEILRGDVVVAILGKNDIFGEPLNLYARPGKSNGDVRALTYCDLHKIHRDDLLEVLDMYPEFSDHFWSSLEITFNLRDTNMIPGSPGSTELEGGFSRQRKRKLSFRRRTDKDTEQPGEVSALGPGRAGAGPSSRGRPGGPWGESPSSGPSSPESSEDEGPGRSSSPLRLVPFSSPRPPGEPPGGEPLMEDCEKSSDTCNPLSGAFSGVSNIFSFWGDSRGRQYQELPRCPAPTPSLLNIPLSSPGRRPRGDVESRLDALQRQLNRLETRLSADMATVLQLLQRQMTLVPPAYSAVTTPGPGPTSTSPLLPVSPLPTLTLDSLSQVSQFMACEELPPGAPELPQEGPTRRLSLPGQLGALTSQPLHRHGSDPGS
Response given: 3

* * *

- target: Serine/threonine-protein kinase B-raf (Homo sapiens)
- Sequence (P15056 whole entry): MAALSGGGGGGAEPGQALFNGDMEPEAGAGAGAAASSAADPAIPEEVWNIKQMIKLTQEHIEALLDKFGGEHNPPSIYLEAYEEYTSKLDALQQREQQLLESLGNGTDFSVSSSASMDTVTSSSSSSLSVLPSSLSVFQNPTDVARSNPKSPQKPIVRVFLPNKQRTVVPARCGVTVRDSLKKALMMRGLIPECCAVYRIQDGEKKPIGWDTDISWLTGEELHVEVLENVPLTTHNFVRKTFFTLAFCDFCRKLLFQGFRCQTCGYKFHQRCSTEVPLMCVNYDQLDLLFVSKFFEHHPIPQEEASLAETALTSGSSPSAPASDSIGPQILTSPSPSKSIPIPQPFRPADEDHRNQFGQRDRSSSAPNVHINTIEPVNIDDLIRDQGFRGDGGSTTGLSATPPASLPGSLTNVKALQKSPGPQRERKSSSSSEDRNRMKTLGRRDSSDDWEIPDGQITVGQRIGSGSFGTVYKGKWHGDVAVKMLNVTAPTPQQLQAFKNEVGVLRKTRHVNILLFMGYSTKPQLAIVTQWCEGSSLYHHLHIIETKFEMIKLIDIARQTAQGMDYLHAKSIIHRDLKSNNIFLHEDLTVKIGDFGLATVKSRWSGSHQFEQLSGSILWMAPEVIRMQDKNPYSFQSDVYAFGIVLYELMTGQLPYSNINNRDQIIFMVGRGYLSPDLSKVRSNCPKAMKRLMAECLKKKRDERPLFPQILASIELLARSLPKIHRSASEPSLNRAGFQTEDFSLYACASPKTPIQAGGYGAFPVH
- procedure_summary: Inhibition of human recombinant wild type BRAF measured after 60 mins by TR-FRET assay
quantity_kind: IC50

Challenge: Item Cc1ccc(NC(=O)c2ccnc(C(F)(F)F)c2)cc1-c1ccc2c(c1)OC1(CCOCC1)CC(=O)N2 has what recorded IC50?
Response given: 12 nM

Challenge: # lookup: IC50 of Cc1ccc(NC(=O)c2cc(C(F)(F)F)cnn2)cc1-c1ccc2c(c1)OC1(CCOCC1)CC(=O)N2
Response given: 10 nM

* * *

- target: P-gp (ABCB1) (Homo sapiens)
- Sequence (P08183 whole entry): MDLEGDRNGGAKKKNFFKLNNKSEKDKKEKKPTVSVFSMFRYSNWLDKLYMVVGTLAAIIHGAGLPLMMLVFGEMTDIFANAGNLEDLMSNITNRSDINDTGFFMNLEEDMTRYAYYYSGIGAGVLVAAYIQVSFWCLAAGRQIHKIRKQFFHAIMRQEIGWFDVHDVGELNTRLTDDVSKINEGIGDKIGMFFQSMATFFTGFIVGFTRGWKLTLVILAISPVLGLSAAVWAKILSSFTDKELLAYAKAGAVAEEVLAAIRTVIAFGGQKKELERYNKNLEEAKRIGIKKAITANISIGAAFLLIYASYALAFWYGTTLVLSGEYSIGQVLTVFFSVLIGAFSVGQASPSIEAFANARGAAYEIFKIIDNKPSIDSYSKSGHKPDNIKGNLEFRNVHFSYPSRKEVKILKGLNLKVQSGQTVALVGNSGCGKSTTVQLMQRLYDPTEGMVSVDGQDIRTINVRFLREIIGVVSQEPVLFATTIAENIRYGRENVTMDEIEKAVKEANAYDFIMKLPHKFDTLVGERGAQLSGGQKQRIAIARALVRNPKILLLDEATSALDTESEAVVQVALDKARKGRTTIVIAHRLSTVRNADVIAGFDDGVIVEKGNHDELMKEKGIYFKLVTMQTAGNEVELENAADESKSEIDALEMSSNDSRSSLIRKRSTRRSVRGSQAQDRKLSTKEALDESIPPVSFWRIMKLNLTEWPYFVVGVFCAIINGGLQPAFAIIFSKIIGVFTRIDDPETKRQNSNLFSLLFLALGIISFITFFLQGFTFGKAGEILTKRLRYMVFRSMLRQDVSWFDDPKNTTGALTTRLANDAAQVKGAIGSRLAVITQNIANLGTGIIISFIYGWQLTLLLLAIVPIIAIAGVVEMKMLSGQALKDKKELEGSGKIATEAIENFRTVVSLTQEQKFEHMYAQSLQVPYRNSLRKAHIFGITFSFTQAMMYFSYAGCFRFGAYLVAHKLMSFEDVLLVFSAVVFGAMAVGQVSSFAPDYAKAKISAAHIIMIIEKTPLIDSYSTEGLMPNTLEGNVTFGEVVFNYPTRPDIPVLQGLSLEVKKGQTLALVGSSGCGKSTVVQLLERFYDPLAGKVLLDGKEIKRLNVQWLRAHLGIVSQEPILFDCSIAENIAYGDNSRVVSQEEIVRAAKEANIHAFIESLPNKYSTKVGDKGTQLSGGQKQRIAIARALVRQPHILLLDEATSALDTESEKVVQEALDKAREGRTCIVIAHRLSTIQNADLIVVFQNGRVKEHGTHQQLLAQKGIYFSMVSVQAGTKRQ
- procedure_summary: Substrate activity at P-gp in human Caco-2 cells assessed as efflux ratio of permeability
quantity_kind: efflux ratio
Lab note: jot down the number only; don't add units.

Challenge: Dear colleague, I am looking for the recorded efflux ratio of the following molecule: Cc1ccc(NC(=O)c2ccnc(C(F)(F)F)c2)cc1-c1ccc2c(c1)OC1(CCOCC1)CC(=O)N2
Response given: 2.53

* * *

- procedure_summary: Cmax in Sprague-Dawley rat plasma at 2 mg/kg, IG by LC-MS/MS analysis
- Format: ADME, organism-based
- Set-up: route […], dose 2 mg/kg
- particulars: po
Consider the cut-off 40 ng/mL. If the recorded Cmax is strictly smaller, the label is fulfilled; if not, the label is not fulfilled.

Challenge: Threshold test, Cmax < 40 ng/mL: Cc1ccc(NC(=O)c2ccnc(C(F)(F)F)c2)cc1-c1ccc2c(c1)OC1(CCOCC1)CN(CCO)C2=O
Response given: fulfilled

Challenge: Is Cmax of Cc1ccc(NC(=O)c2cc(C(F)(F)F)cnn2)cc1-c1ccc2c(c1)OC1(CCOCC1)CC(=O)N2 strictly below 40 ng/mL?
Response given: not fulfilled

Challenge: For Cc1ccc(NC(=O)c2ccnc(C(F)(F)F)c2)cc1-c1ccc2c(c1)OC1(CCOCC1)CC(=O)N2 , is the recorded Cmax below the cut-off of 40 ng/mL?
Response given: not fulfilled

Challenge: Could you please tell me whether Cmax recorded for Cc1ccc(NC(=O)c2ccnc(C(F)(F)F)c2)cc1-c1ccc2c(c1)OC1(CCOCC1)CNC2=O is less than 40 ng/mL?
Response given: fulfilled

Challenge: Problem: For the compound Cc1ccc(NC(=O)c2ccnc(OC(F)F)c2)cc1-c1ccc2c(c1)OC1(CCOCC1)CC(=O)N2 , is Cmax under 40 ng/mL?
Response given: not fulfilled

* * *

- procedure_summary: Apparent permeability across basolateral to apical membrane in human Caco-2 cells
quantity_kind: Papp B→A
Be sure to follow the number with its unit.

Challenge: Fill in the blank: the reported Papp B→A of Cc1ccc(NC(=O)c2ccnc(C(F)(F)F)c2)cc1-c1ccc2c(c1)OC1(CCOCC1)CC(=O)N2 is ____.
Response given: 39.8 ×10⁻⁶ cm/s

* * *

- procedure_summary: AUC (0 to t) in Sprague-Dawley rat plasma at 20 mg/kg, IG by LC-MS/MS analysis
- Type: ADME, organism-based
- Parameters: dose 20 mg/kg
- particulars: po
quantity_kind: AUC(0-t)

Challenge: Quick one: AUC(0-t) for Cc1ccc(NC(=O)c2cc(C(F)(F)F)cnn2)cc1-c1ccc2c(c1)OC1(CCOCC1)CC(=O)N2 ?
Response given: 21800 ng·h/mL

* * *

- procedure_summary: Oral bioavailability in C57 mouse
- Format: ADME, organism-based
- particulars: in vivo
quantity_kind: bioavailability

Challenge: bioavailability lookup needed for Cc1ccc(NC(=O)c2cc(C(F)(F)F)cnn2)cc1-c1ccc2c(c1)OC1(CCOCC1)CC(=O)N2 , thanks.
Response given: 112%

* * *

- procedure_summary: Half life in C57 mouse at 1 mg/kg, iv
- Type: ADME, organism-based
- particulars: in vivo
quantity_kind: half-life (h)
The reply should contain only the number, in h.

Challenge: Which half-life value belongs to Cc1ccc(NC(=O)c2cc(C(F)(F)F)cnn2)cc1-c1ccc2c(c1)OC1(CCOCC1)CC(=O)N2 ?
Response given: 3.6

* * *

pIC50: −log10 of the molar value.
quantity_kind: pIC50

Challenge: What pIC50 appears in the records for this molecule with Cytochrome P450 2C19 (Homo sapiens)? Cc1ccc(NC(=O)c2ccnc(C(F)(F)F)c2)cc1-c1ccc2c(c1)OC1(CCOCC1)CC(=O)N2
Sequence (P33261 whole entry): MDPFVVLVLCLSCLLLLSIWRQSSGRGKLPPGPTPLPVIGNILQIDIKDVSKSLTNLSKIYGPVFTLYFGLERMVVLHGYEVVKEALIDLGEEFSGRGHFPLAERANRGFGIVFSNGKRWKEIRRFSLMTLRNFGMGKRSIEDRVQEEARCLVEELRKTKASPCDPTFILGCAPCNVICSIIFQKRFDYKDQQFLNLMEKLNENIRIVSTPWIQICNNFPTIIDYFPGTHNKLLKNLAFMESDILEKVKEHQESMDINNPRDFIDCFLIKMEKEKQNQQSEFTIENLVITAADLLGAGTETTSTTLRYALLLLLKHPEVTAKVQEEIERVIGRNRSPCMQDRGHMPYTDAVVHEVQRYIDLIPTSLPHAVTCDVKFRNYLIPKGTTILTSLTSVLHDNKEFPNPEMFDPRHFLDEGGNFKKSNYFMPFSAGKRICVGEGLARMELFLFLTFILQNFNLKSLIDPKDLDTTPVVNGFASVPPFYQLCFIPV
Response given: < 4.52

* * *

- procedure_summary: AUC (0 to t) in C57 mouse at 2 mg/kg, IG
- Format: ADME, organism-based
- Parameters: dose 2 mg/kg
- particulars: in vivo, po
quantity_kind: AUC(0-t)
// unit must come after the numeric part

Challenge: Which AUC(0-t) reading was recorded for the molecule Cc1ccc(NC(=O)c2cc(C(F)(F)F)cnn2)cc1-c1ccc2c(c1)OC1(CCOCC1)CC(=O)N2 ?
Response given: 5410 ng·h/mL
